Recorded inhibition at 0.037 µg/mL, one value per entry.
target: 5-lipoxygenase (Rattus norvegicus); construct: endogenous in cells; host or cells: casein-elicited peritoneal polymorphonuclear leukocytes of male Sprague-Dawley rats; experiment: PMN5LO assay: inhibition of LTB4 production in A23187-stimulated rat peritoneal PMN (RIA); assay type: cell-based; settings: 0.037 μg/ml
Sequence (P12527 whole entry): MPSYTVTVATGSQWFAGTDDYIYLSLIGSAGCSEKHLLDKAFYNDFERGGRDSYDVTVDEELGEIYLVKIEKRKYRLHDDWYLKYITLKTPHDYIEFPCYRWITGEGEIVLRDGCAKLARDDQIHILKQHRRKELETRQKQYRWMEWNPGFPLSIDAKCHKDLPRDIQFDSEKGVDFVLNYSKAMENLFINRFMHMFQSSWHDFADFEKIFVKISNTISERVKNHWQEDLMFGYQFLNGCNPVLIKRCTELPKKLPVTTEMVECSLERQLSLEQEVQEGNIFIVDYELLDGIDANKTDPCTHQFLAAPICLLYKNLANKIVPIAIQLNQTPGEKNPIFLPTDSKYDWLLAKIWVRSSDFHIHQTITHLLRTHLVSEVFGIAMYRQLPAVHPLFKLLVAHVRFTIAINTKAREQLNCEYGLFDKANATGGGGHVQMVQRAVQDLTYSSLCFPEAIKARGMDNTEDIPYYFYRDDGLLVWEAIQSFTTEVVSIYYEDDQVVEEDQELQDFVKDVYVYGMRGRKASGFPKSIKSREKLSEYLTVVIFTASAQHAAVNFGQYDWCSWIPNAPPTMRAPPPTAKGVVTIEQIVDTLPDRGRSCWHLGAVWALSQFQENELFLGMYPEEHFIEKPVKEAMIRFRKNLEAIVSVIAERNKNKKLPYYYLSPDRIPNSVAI

molecule: Cc1ccccc1-c1cc(O)c(-c2ccccc2)s1
inhibition at 0.037 µg/mL: 46%

molecule: Oc1cc(-c2ccccc2)sc1-c1cccnc1
inhibition at 0.037 µg/mL: 19%

molecule: CC(=O)Oc1cscc1-c1ccccc1
inhibition at 0.037 µg/mL: 0%

Exercise: Tell me measured inhibition at 0.037 µg/mL for Oc1c(-c2ccccc2)sc(-c2ccccc2)c1-c1ccccc1 [Compound 2, 3-Hydroxy-2,4,5-triphenylthiophene] please.
Solution: 14%

Exercise: Give the reported inhibition at 0.037 µg/mL for this molecule. c1ccc(-c2ccc(-c3ccccc3)s2)cc1
Solution: 0%
